Source listed as PubChem BioAssay AID1845199.

system: 556581-035-R-J1 tumor spheroid viability, % test/control; assay: Anticancer human tumor 556581-035-R-J1 patient-derived ovarian carcinoma cell line growth inhibition; details: second compound 1 µM; first compound 0.949 µM; stronger effect = lower value; spheroids with HUVEC and MSC;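 further: spheroids exposed to compounds for 7 days before viability read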
Give measured viability, T/C for each item. Keep answers brief.
Just the number in %, nothing appended.

Record Cc1sc2c(c1C)C(c1ccc(Cl)cc1)=NC(CC(=O)Nc1ccc(O)cc1)c1nnc(C)n1-2 (centres undefined) + Cn1nnc2c(C(N)=O)ncn2c1=O ; system 556581-035-R-J1 tumor spheroid viability, % test/control; viability, T/C = 68

Record O=C(c1cc(Cc2n[nH]c(=O)c3ccccc23)ccc1F)N1CCN(C(=O)C2CC2)CC1 + Cn1nnc2c(C(N)=O)ncn2c1=O ; system 556581-035-R-J1 tumor spheroid viability, % test/control; viability, T/C = 102

Record CNCc1ccc(-c2cc(-c3nc(-c4ccc(S(=O)(=O)C(C)C)cc4)cnc3N)on2)cc1 + Cn1nnc2c(C(N)=O)ncn2c1=O ; system 556581-035-R-J1 tumor spheroid viability, % test/control; viability, T/C = 80.2

Record Cn1ncnc1[C@H]1c2n[nH]c(=O)c3cc(F)cc(c23)N[C@@H]1c1ccc(F)cc1 + Cn1nnc2c(C(N)=O)ncn2c1=O ; system 556581-035-R-J1 tumor spheroid viability, % test/control; viability, T/C = 67.6
